- protocol summary: Sensory evaluation on the backside of the hand (spreading, fatty/greasy skin feel, absorption), untrained panellists
- experimental context: blend with Argan Oil vs without
metric name: Absorption/remaining residue Delta

Completed entries (count: 2):
[[record]]
compound = "CCCCCCC(O)CO (stereo not shown)"
measured_number = 1.2

[[record]]
compound = "CCCCC(O)C(C)O (stereo not shown)"
measured_number = 1.4


A: CCCCCC(O)CO (stereo not shown)
B: CCCCCC(O)C(C)O (stereo not shown)
Consider entries A and B . Which has the numerically lower Absorption/remaining residue Delta? Write down the label attached to your selection. A
(A: 1, B: 1.6)

----------
- System: Escherichia coli (EC)
- protocol summary: Preservation efficacy test (PET), European Pharmacopoeia 5.1.3
- Format: cell-based
- experimental context: 0.2% in o/w emulsion
- Method: The preservation efficacy test (PET) was performed in accordance with European Pharmacopoeia § 5.1.3: The test is a reference European Pharmacopoeia method, that is to be used to evaluate the preservation system of a cosmetic or pharmaceutical preparation. The test consists of challenging the preparation under test, with prescribed inoculums of suitable microorganisms. […]
Below is a list of entries, each paired with its recorded number of microorganisms after 14 days value.
Returns: the value as a bare number; no unit string appended.

Completed entries (count: 3):
[[record]]
compound = "CCCCCC(O)C(C)O (stereo not shown)"
measured_number = 1

[[record]]
compound = "CCCCCCC(O)CO (stereo not shown)"
measured_number = 1

[[record]]
compound = "CCCCCC(O)CO (stereo not shown)"
measured_number = 1


Known value: Escherichia coli (EC) number of microorganisms after 14 days of the compound CCCCC(O)C(C)O (stereo not shown) equals 82
